Hello, the source for this data is ChEMBL document CHEMBL3286352, in case you need it.

# test_name: Cytotoxicity against BALB/c mouse peritoneal macrophages after 72 hrs by AlamarBlue assay
# Format: cell-based, Peritoneal macrophage cell
# conditions_used: read-out: LC50
measured_attribute: CC50 at 72 h (µM)
One number for each entry, in µM.

[
  {
    "smiles": "CN(C)c1ccc(C(=C2C=CC(=[N+](C)C)C=C2)c2ccc(N(C)C)cc2)cc1",
    "CC50 at 72 h (µM)": 0.48
  },
  {
    "smiles": "COc1ccc(/C=C/[C@@H]2c3c(OC)cc(O)cc3O[C@H]3c4c(OC)cc(O)cc4O[C@H](c4ccccc4)[C@@H]23)cc1",
    "CC50 at 72 h (µM)": 15.6
  }
]

Q. Quick one: CC50 at 72 h of COc1cc(O)cc2c1[C@@H](/C=C/c1ccccc1)[C@@H]1[C@@H](c3ccccc3)Oc3cc(O)cc(OC)c3[C@@H]1O2 ?
A. 17.3

====

# target_under_test: Cruzipain (Trypanosoma cruzi) (UniProt P25779)
# Sequence (P25779 123-467 limits assumed): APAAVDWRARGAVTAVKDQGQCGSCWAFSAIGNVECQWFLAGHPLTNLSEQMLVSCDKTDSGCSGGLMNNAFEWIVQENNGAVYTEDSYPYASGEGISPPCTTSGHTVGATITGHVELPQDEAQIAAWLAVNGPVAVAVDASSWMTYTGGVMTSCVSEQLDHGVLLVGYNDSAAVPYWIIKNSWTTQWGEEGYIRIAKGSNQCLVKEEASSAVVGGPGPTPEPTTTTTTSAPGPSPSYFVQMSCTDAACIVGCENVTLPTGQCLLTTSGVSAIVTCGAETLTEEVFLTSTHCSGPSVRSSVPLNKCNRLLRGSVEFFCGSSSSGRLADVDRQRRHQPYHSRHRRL
# test_name: Inhibition of recombinant Trypanosoma cruzi cruzain at 25 uM preincubated for 10 mins followed by substrate addition measured after 10 mins relative to control
measured_attribute: inhibition (%)
One number for each entry, in %.

Please review the following examples before continuing.
[
  {
    "smiles": "CC(C)CCNC(=O)[C@H](CC(C)C)NC(=O)[C@H]1O[C@@H]1C(=O)O",
    "inhibition [%]": 100
  },
  {
    "smiles": "COc1cc(O)cc2c1[C@@H](/C=C/c1ccccc1)[C@@H]1[C@@H](c3ccccc3)Oc3cc(O)cc(OC)c3[C@@H]1O2",
    "inhibition [%]": 0
  },
  {
    "smiles": "COc1cc(O)cc2c1[C@@H](/C=C/c1ccc(O)cc1)[C@@H]1[C@@H](c3ccccc3)Oc3cc(O)cc(OC)c3[C@@H]1O2",
    "inhibition [%]": 0
  }
]

// next entry
Q. Please give the measured inhibition for this compound: COc1ccc(/C=C/[C@@H]2c3c(OC)cc(O)cc3O[C@H]3c4c(OC)cc(O)cc4O[C@H](c4ccccc4)[C@@H]23)cc1
A. 0
